- System: Pseudomonas aeruginosa (ATCC 27853)
- Assay type: cell-based
- CONDITION: P. aeruginosa ATCC 27853, MHB, 18 hours at 37° C., mean of three
Where no end group is shown, it is not given here.
OBSERVATION_TYPE: MIC (µg/mL)
Return type: number; implicit unit µg/mL.

**Query** Please indicate MIC recorded for Lys Lys Phe Arg Arg Phe Val Arg Phe Ile Ala Lys Lys (KKFRRFVRFIAKK; not fully specified (bridges); printed as Lys Lys Phe Arg Arg Phe Val Arg Phe Ile Ala Lys Lys; also: cyclic topology, ring type not given here) [Pem-2253 C]
**Result** 50

###

- Test system: Pseudomonas aeruginosa (ATCC 27853)
- Format: cell-based
- CONDITION: ATCC 27853, 18 h
Where no end group is shown, it is not given here.
OBSERVATION_TYPE: log10 MIC (log10 of the value in µg/mL)
Base-10 log of MIC, unit µg/mL.

Solved entries (count: 2):
**Query** Specify the recorded log10 MIC for KWKIWLK-NH2 [Pem-1003 L, Lys Trp Lys Ile Trp Leu Lys] , system: Pseudomonas aeruginosa (ATCC 27853).
**Result** 1.10

**Query** Specify the recorded log10 MIC for KKFRRFVRFIAKK-NH2 [Pem-2253 L] , system: Pseudomonas aeruginosa (ATCC 27853).
**Result** 1.10

Continuing:
**Query** Specify the recorded log10 MIC for KKWRKWLKWLAKK-NH2 [Pem-2254 L] , system: Pseudomonas aeruginosa (ATCC 27853).
**Result** 0.19

**Query** Specify the recorded log10 MIC for KKWRAWLKWLAKK-NH2 [Pem-2251 L] , system: Pseudomonas aeruginosa (ATCC 27853).
**Result** 0.80

**Query** Specify the recorded log10 MIC for KFKRWLA-NH2 [Pem-1001 L, Lys Phe Lys Arg Trp Leu Ala] , system: Pseudomonas aeruginosa (ATCC 27853).
**Result** 1.70

**Query** Specify the recorded log10 MIC for KKWRKWLRAIAKK-NH2 [Pem-2252 L] , system: Pseudomonas aeruginosa (ATCC 27853).
**Result** 1.40

###

# MIC per entry
- System: E. coli (ATCC 25922)
- Assay type: cell-based
- CONDITION: E. coli ATCC 25922, MHB, 18 hours at 37° C., mean of three
Where no end group is shown, it is not given here.
Return type: number; implicit unit µg/mL.

**Query** Please indicate MIC recorded for Lys Lys Trp Arg Ala Trp Leu Lys Trp Leu Ala Lys Lys (KKWRAWLKWLAKK; not fully specified (bridges); printed as Lys Lys Trp Arg Ala Trp Leu Lys Trp Leu Ala Lys Lys; also: cyclic topology, ring type not given here) [Pem-2251 C]
**Result** 25

**Query** Please indicate MIC recorded for Lys Lys Phe Arg Arg Phe Val Arg Phe Ile Ala Lys Lys (KKFRRFVRFIAKK; not fully specified (bridges); printed as Lys Lys Phe Arg Arg Phe Val Arg Phe Ile Ala Lys Lys; also: cyclic topology, ring type not given here) [Pem-2253 C]
**Result** 50

We now examine a further substance.
**Query** Please indicate MIC recorded for Lys Lys Trp Arg Lys Trp Leu Lys Trp Leu Ala Lys Lys (KKWRKWLKWLAKK; not fully specified (bridges); printed as Lys Lys Trp Arg Lys Trp Leu Lys Trp Leu Ala Lys Lys; also: cyclic topology, ring type not given here) [Pem-2254 C]
**Result** 25
